Assay: 13 week toxicology and toxicokinetic study in cynomolgus monkeys
Assay type: in vivo, cynomolgus monkey
Conditions: cynomolgus monkey, in vivo, 12 mg/kg, monkey 12 mpk, Day 28; read-out: AUC0-24
quantity name: AUC(0-t) (ng·h/mL)
Please reply with the bare figure in ng·h/mL and do not write the unit itself.

[Q] # query: AUC(0-t) of entry `C=CC(=O)N1C[C@H](Nc2ncnc3[nH]cc([C@H]4CC4(F)F)c23)CC[C@@H]1C`
[A] 6930

----------
Test: Phase 1 multiple ascending dose (MAD) study: pharmacokinetics
Format: in vivo, human
Details: human, plasma, oral, 25 mg, Cohort 4, 25 mg BID, Day 7; read-out: Geometric Mean AUCINF_obs
quantity name: AUC(0-inf) (ng·h/mL)
Express your answer in ng·h/mL, writing the number without its unit.

[Q] // AUC(0-inf) lookup, key: `C=CC(=O)N1C[C@H](Nc2ncnc3[nH]cc([C@H]4CC4(F)F)c23)CC[C@@H]1C`
[A] 265
